# System: CYP2D6
# experimentalConditions: human
measure: 2 al (effect of 2 non-functional alleles)

Answered examples (8):
- compound: "CN(C)CCC=C1c2ccccc2CCc2ccccc21"
  testValue: 0.34
- compound: "CC(CN(C)C)CN1c2ccccc2CCc2ccccc21 (centres unmarked)"
  testValue: 0.72
- compound: "O=C(NCCN1CCOCC1)c1ccc(Cl)cc1 [moclobemide]"
  testValue: "−0.32"
- compound: "CCc1nn(CCCN2CCN(c3cccc(Cl)c3)CC2)c(=O)n1CCOc1ccccc1"
  testValue: 0.14
- compound: "CN(C)CCCC1(c2ccc(F)cc2)OCc2cc(C#N)ccc21 (centres unmarked)"
  testValue: 0.03
- compound: "OCCN1CCN(CC/C=C2/c3ccccc3Sc3ccc(Cl)cc32)CC1"
  testValue: 0.46
- compound: "COc1ccc2c(c1)N(C[C@H](C)CN(C)C)c1ccccc1S2"
  testValue: 0.00
- compound: "CNCCC=C1c2ccccc2CCc2ccccc21"
  testValue: 0.55

a. CN1CCN2c3ncccc3Cc3ccccc3C2C1 (centres unmarked)
b. CNCCCN1c2ccccc2CCc2ccccc21
c. O=c1[nH]c2ccccc2n1C1CCN(CCCC(c2ccc(F)cc2)c2ccc(F)cc2)CC1 [pimozide]
d. CN1CCN(CCCN2c3ccccc3Sc3ccccc32)CC1
e. CN1CCN(C2=Nc3cc(Cl)ccc3Nc3ccccc32)CC1
Q. I would appreciate it if you could sort these 5 compounds by 2 al (effect of 2 non-functional alleles), starting from the smallest number. To answer, write out the labels according to the requested order.
A. e, a, c, d, b
(e: −0.20, a: −0.03, c: 0.07, d: 0.22, b: 0.66)
